Biological target: T1, Human TIGIT protein with HIS tag (human, UniProt Q495A1 22-141)
T1 construct: A soluble analyte is probably only the extracellular part; also called human TIGIT recombinant protein; not shown: HIS tag
T1 sequence: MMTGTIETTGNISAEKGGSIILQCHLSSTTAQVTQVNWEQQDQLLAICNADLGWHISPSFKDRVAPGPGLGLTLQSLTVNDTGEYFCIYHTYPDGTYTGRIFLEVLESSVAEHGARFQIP
Assay: SPR Biacore T200; antibody Fc-captured, TIGIT-His analyte
Measured kon accompanies every entry in the list below.
Answer format: numeric, M⁻¹ s⁻¹ implied, no suffix.

Binder	kon (M⁻¹ s⁻¹)
64G1E9B4VH1.M1_VL1.M1 (antibody, human IgG1, V domains shown, Humanized antibody, variable domains fused with the constant region of human IgG1; also called 64G1VH1.M1_VL1.M1) VH: EVQLVQSGAEVKKPGSSVKVSCKASGYTFTEHVIHWVRQAPGQGLEWMGGFNPNHGGTIYNQIFRGRVTITADKSTSTAYMELSSLRSEDTAVYYCARAAKLLFAMDYWGQGTTVTVSS VL: DIQMTQSPSSLSASVGDRVTITCRASQHVSNAVVWYQQKPGKAPKLLIYSPSYRFTGVPSRFSGSGSGTDFTLTISSLQPEDFATYYCQQHYSTPWTFGGGTKVEIK	630000
64G1E9B4VH1_VL1.M1 (antibody, human IgG1, V domains shown, Humanized antibody, variable domains fused with the constant region of human IgG1; also called 64G1VH1_VL1.M1) VH: EVQLVQSGAEVKKPGSSVKVSCKASGYTFTEHVIHWVRQAPGQGLEWMGGFNPNHDGTIYNQIFRGRVTITADKSTSTAYMELSSLRSEDTAVYYCARAAKLLFAMDYWGQGTTVTVSS VL: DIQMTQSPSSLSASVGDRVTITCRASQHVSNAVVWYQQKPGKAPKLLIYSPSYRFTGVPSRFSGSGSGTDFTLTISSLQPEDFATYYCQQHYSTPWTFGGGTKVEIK	590000
64G1E9B4 chimeric (antibody, V domains shown, also called 64G1 Chimeric) VH: EVQLQQSGPELVKPGASVKISCKTSGYTFTEHVIHWVKQSHGKSLEWIGGFNPNHDGTIYNQIFRGKATLTVDKSSSTAYMELRSLTSEDSAVYFCTRAAKLLFAMDYWGQGTSVTVSS VL: DIVMTQSHKFMSTSIGDRVSITCKASQHVSNAVVWYQQKPGQSPKLLIYSPSYRFTGVPDRFTGSGSGTDFTFTISSVQAEDLAVYYCQQHYSTPWTFGGGTKLEIK	910000

// below: kon requested for another binder
The reported value for 100C4E7D11 chimeric (antibody, V domains shown, also called 100C4 Chimeric) VH: EVMLVESGGGLVKPGGSLKLSCAASGFTFSFYTMSWVRQTPEKRLEWVATISSGGGSTYYSDSVKGRFTISRDNAKNNLYLQMTSLRSEDTALYYCSRSLPVDYWGQGTTLTVSS VL: QIVLTQSPAIMSASLGERVTMTCTASSSVSSTYLHWYQQKPGSSPKLWIYSTSNLASGVPARFSGSGSGTSYSLTISSMEAEDAATYYCHLYHHSPYTFGGGTKLEIK in terms of kon is 910000
